Ref: PubChem BioAssay

assay.notes: growth inhibitors of H69AR lung tumor, primary screen, human, duplicate replicates (AID 580);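 further: 100% = mean luminescence of untreated wells and 0% = no signal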
assay.setup: H69AR lung tumor cells viability, ATP luminescence, 72 h; at 10 µM; stronger effect = lower value
viability values for the molecules below.
Use % as the unit, but write only the number.

Solved entries:
{"columns": ["molecule", "unit.symbol", "viability"],
 "data": [
  ["CC1(C)SC2[C@H](NC(=O)C(NC(=O)N3CCNC3=O)c3ccccc3)C(=O)N2C1C(=O)O (some centres undefined)", "%", 95.3],
  ["COc1ccc(NC(=O)C23CCC(C)(C(=O)C2)C3(C)C)cc1 (centres undefined)", "%", 102],
  ["CCOC(=O)Cc1nnc(Nc2cccc(O)c2)c2ccccc12", "%", 106]
]}

Shifting focus to the molecule that follows.
[ask] // query viability value for entry COc1ccc(-n2nnnc2SCC(=O)c2ccc(O)c(O)c2)cc1
[reply] 34.7

* * *

Recorded viability by entry
assay.notes: SK-BR-3 cell growth inhibitors, pilot screen, 24 h, human (AID 572);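 further: compound exposure lasted between 18 and 24 h rather than exactly 24 h; 100% = carrier-treated control wells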
assay.setup: SK-BR-3 viability, CellTiter-Glo luminescence, at 10 µM, stronger effect = lower value
Report the value in % with no unit label.

These recorded examples may help you get a feel for the data.
{"columns": ["structure.smiles.string", "unit.symbol", "viability"],
 "data": [
  ["Cc1cc(C)cc(NC(=O)CN(C)S(=O)(=O)c2cnc[nH]2)c1", "%", 113],
  ["CCN1CCc2c(C#N)c(N3CCCCC3)nc(NCc3ccccc3)c2C1", "%", 103],
  ["O=C(Nc1ccccn1)N1CCOCC1", "%", 123]
]}

[ask] Look up viability for this compound: Nn1c(SCC(=O)NC2CCCCC2)nnc1-c1ccc(Cl)cc1
[reply] 89

[ask] Would you mind telling me what viability value was observed for NS(=O)(=O)c1cc2c(cc1Cl)NC=NS2(=O)=O ?
[reply] 104

[ask] Bench note: what viability did CCOC(=O)c1cnn(-c2sc(C(=O)OCC)c(C)c2C(=O)OCC)c1N show?
[reply] 95

[ask] Need viability, item CCn1c(SCC(=O)c2ccc(C)cc2)nnc1-c1ccoc1C
[reply] 89

* * *

assay.notes: reversal of MRP1-mediated doxorubicin resistance, pilot screen, H69AR cells, doxorubicin co-treatment (AID 601)
assay.setup: H69AR cells + 2 uM doxorubicin, CellTiter-Glo, 72 h; measured here: viability with 2 uM doxorubicin; at 10 µM; stronger effect = lower value
Quick list: viability per entry.
Dear colleague, please return just the value in %, with no unit written.

As a guide, the following entries are already answered.
{"columns": ["molecule", "viability, %"],
 "data": [
  ["CCCCOC(=O)c1cccc(NC(=O)CC)c1", 88.3],
  ["CCOC(=O)CSC1=C(C#N)C(c2ccc(C)cc2)C(C(=O)OC)C(=O)N1 (configuration not stated)", 89.6],
  ["CCOc1ccccc1C(=O)NCCCn1ccnc1", 87.5],
  ["Cc1cc(/N=C/N(C)C)on1", 81.7],
  ["COc1ccc(CN(C)CC(=O)c2c(N)n(Cc3ccccc3)c(=O)n(C)c2=O)c(OC)c1", 83.6],
  ["CN(CC(=O)Nc1ccc(F)c(Cl)c1)S(=O)(=O)c1cccc2nsnc12", 81.8]
]}

Please find the next molecule below.
[ask] Could you tell me which viability is on file for Cc1ccc(-c2nc(-c3cccnc3)no2)c(C)c1 ?
[reply] 90.7
